Reference source: paper PMC6009956

Let's look at some compounds and their measured EGFR % Activity Set1.
biological target: UniProt P00533; test: ADP-Glo kinase assay, EGFR; type: biochemical; set-up: purchased BPS Bioscience (assay run externally by the vendor); conditions: Log[nM] 1.0; Set1
Sequence (P00533 25-1210): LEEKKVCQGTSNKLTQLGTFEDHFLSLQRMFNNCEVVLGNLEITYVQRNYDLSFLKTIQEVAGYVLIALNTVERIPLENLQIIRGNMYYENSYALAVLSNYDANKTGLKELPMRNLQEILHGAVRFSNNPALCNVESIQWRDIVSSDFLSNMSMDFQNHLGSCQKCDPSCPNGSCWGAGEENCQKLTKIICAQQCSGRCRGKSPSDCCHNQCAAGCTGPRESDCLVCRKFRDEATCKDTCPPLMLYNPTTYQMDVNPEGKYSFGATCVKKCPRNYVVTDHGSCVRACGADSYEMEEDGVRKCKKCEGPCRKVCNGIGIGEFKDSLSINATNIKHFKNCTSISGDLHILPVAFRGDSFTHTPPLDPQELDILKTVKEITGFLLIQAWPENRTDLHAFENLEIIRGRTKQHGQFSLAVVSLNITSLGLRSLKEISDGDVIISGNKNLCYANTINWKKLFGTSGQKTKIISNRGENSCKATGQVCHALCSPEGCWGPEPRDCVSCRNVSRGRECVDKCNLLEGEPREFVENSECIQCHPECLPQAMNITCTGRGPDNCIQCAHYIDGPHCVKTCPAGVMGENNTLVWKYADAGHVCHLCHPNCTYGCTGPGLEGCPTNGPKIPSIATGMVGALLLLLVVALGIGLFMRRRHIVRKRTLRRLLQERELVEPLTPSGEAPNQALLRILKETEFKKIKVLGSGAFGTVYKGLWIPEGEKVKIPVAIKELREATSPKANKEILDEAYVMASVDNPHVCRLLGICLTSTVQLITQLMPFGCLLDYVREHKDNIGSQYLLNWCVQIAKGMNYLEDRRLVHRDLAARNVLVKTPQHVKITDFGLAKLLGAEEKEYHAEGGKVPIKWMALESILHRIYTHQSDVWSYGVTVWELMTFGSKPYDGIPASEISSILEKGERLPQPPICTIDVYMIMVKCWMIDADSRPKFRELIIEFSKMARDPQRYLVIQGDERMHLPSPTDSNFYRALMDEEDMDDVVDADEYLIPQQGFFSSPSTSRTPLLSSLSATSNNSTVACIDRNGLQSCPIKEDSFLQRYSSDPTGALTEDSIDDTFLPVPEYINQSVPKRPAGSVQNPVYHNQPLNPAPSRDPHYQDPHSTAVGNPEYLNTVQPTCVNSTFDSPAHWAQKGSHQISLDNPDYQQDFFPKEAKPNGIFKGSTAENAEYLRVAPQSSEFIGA
Report only the number, with the unit % understood.

Look over these answered cases.
| MOLECULE | UNIT TEXT | RECORDED RESULT |
| --- | --- | --- |
| Clc1cccc(Nc2ncnc3[nH]ccc23)c1 | % | 36 |
| c1ccc(Cc2ccc(Nc3ncnc4[nH]ccc34)cc2)cc1 | % | 88 |
| Nc1nc(Nc2cccc(Br)c2)c2cc[nH]c2n1 | % | 95 |

Query block: Which EGFR % Activity Set1 reading was recorded for the compound Brc1cccc(Nc2ncnc3[nH]ccc23)c1 ?
Result block: 29

Query block: Which EGFR % Activity Set1 reading was recorded for the compound Brc1ccc(Nc2ncnc3[nH]ccc23)cc1 ?
Result block: 97

Query block: Which EGFR % Activity Set1 reading was recorded for the compound Clc1ccc(Nc2ncnc3[nH]ccc23)cc1Cl ?
Result block: 43

Query block: Which EGFR % Activity Set1 reading was recorded for the compound c1ccc(Oc2ccc(Nc3ncnc4[nH]ccc34)cc2)cc1 ?
Result block: 90

Query block: Which EGFR % Activity Set1 reading was recorded for the compound Clc1ccccc1Nc1ncnc2[nH]ccc12 ?
Result block: 105

Query block: Which EGFR % Activity Set1 reading was recorded for the compound COc1ccc(Nc2ncnc3[nH]ccc23)cc1 ?
Result block: 102

Query block: Which EGFR % Activity Set1 reading was recorded for the compound Clc1ccc(Nc2ncnc3[nH]ccc23)cc1 ?
Result block: 102

Query block: Which EGFR % Activity Set1 reading was recorded for the compound Clc1ccc(Nc2ncnc3[nH]ccc23)cc1Br ?
Result block: 18
